Data provenance: the Kinase Knowledgebase extract (Sharma et al. 2016)

Here the recorded IC50 is given for each entry.
biological target: UniProtKB P48736; experiment: Enzyme Assay
// units = nM; emit number, no label

Answered examples (2):
>>> value("O=C(c1nn(-c2ccc(N3CCOCC3)cc2)c2c1CS(=O)(=O)c1ccccc1-2)N1CCOCC1")
3940
>>> value("O=C(c1nn(C2CCCCC2)c2c1CS(=O)(=O)c1cc(Br)ccc1-2)N1CCOCC1")
691

# input compound: `O=C(c1nn(-c2ccc(Br)cc2)c2c1CS(=O)(=O)c1ccccc1-2)N1CCOCC1` ; wanted: its IC50 1120

Also Cc1nc(CN2CCCC(n3nc(C(=O)N4CCOCC4)c4c3-c3ccccc3S(=O)(=O)C4)C2)no1 (stereo not given) , if possible. 134

Please give the result for `O=C(c1nn([C@H]2CCN(CCN3CCC(F)CC3)C2)c2c1CS(=O)(=O)c1ccccc1-2)N1CCOCC1` too. 55

Note, next up: `O=C(c1nn([C@H]2CCCN(CCN3CC(F)(F)C3)C2)c2c1CS(=O)(=O)c1c(F)cccc1-2)N1CCOCC1` 22

Now the same for `O=C(c1ccc2c(c1)-c1c(c(C(=O)N3CCOCC3)nn1-c1ccccc1)CS2(=O)=O)N1CCCCC1` 3410

# repeat for `CN(C)c1ccc2c(c1)S(=O)(=O)Cc1c(C(=O)N3CCOCC3)nn(-c3ccccc3)c1-2` 5020

`O=C(CC1CCCCC1)N1CCC[C@H](n2nc(C(=O)N3CCOCC3)c3c2-c2ccccc2S(=O)(=O)C3)C1` , same question. 735

# repeat for `O=C(c1nn(-c2ccccc2)c2c1CS(=O)(=O)c1ccccc1-2)N1CCOCC1` 244

Another compound to check: `COCC(=O)N1CCC[C@H](n2nc(C(=O)N3CCOCC3)c3c2-c2ccccc2S(=O)(=O)C3)C1` 261

Moving on to the next compound: `O=C(c1nn([C@@H]2CCN(CCN3CCC(F)CC3)C2)c2c1CS(=O)(=O)c1ccccc1-2)N1CCOCC1` 3690

What do you get for O=C(c1nn(C2CCCN(CCc3ccccc3)C2)c2c1CS(=O)(=O)c1ccccc1-2)N1CCOCC1 (stereo not given) ? 711

O=C(c1nn(C2CN3CCC2CC3)c2c1CS(=O)(=O)c1ccccc1-2)N1CCOCC1 (stereo not given) , same question. 10200

Ok, now `CCCCNc1ccc2c(c1)S(=O)(=O)Cc1c(C(=O)N3CCOCC3)nn(-c3ccccc3)c1-2` 9790

What do you get for `Cc1ccncc1-n1nc(C(=O)N2CCOCC2)c2c1-c1ccccc1S(=O)(=O)C2` ? 4040

Record: O=C(c1nn(C2CCCN(CCN3CC(F)(F)C3)C2)c2c1CS(=O)(=O)c1ccccc1-2)N1CCOCC1 (stereo not given) 36

What do you have for `COc1ccccc1-n1nc(C(=O)N2CCOCC2)c2c1-c1ccccc1S(=O)(=O)C2` ? 14800

###

target: PIK3CB;PIK3CG;PIK3CD;PIK3CA (human); experiment: Enzyme Assay
pIC50: −log10 of the molar value.
Rule: yes (1) for pIC50 not less than 7, no (0) for anything less.

Some solved entries appear below for comparison.
>>> category("O=C(c1nn(C2CCCCC2)c2c1CS(=O)(=O)c1sccc1-2)N1CCOCC1")
"no (0)"
>>> category("O=C(c1nn([C@H]2CCCN(CCN3CCOCC3)C2)c2c1CS(=O)(=O)c1c(Cl)cccc1-2)N1CCOCC1")
"yes (1)"
>>> category("O=C(c1nn([C@H]2CCCN(CCN3CC[C@H](F)C3)C2)c2c1CS(=O)(=O)c1ccccc1-2)N1CCOCC1")
"yes (1)"
>>> category("COc1cccc2c1S(=O)(=O)Cc1c(C(=O)N3CCOCC3)nn([C@H]3CCCN(CCN4CC(F)(F)C4)C3)c1-2")
"yes (1)"
>>> category("CC1CN(Cc2ccc(-n3nc(C(=O)N4CCOCC4)c4c3-c3ccccc3S(=O)(=O)C4)cc2)CC(C)O1 (stereo not drawn)")
"yes (1)"
>>> category("O=C(c1nn(CC2CCNCC2)c2c1CS(=O)(=O)c1ccccc1-2)N1CCOCC1")
"no (0)"

Turning now to a further record.
Dear colleague, could you confirm whether `O=C(c1nn([C@H]2CCCN(Cc3ccncc3)C2)c2c1CS(=O)(=O)c1ccccc1-2)N1CCOCC1` has pIC50 at or above 7? yes (1)

###

target: PIK3CB;PIK3CG;PIK3CD;PIK3CA (human); assay: Enzyme Assay
Observable: pIC50
The read-out pIC50 is expressed as -log10 of concentration in moles per litre.

Use these answered entries as a reference point.
>>> value("COc1cccc(Cn2nc(C(=O)N3CCOCC3)c3c2-c2ccccc2S(=O)(=O)C3)c1")
5.93
>>> value("CN1CCCC(n2nc(C(=O)N3CCOCC3)c3c2-c2ccccc2S(=O)(=O)C3)C1 (stereo not drawn)")
6.11
>>> value("CC1CN(CCN2CCC[C@H](n3nc(C(=O)N4CCOCC4)c4c3-c3ccccc3S(=O)(=O)C4)C2)CCO1 (stereo partly drawn)")
7.54
>>> value("O=C(c1nn(-c2cccc(N3CCCC3)c2)c2c1CS(=O)(=O)c1ccccc1-2)N1CCOCC1")
5.31

Could you share what pIC50 was measured for `O=C(c1nn([C@H]2CCCN(CCN3CC[C@@H](F)C3)C2)c2c1CS(=O)(=O)c1ccccc1-2)N1CCOCC1` , tested on PIK3CB;PIK3CG;PIK3CD;PIK3CA (human)? 7.49

Another compound: `Cc1noc(-c2cccc(-n3nc(C(=O)N4CCOCC4)c4c3-c3ccccc3S(=O)(=O)C4)c2)n1` 5.57

Repeat with `CN1CCN(C(=O)c2cccc(-n3nc(C(=O)N4CCOCC4)c4c3-c3ccccc3S(=O)(=O)C4)c2)CC1` 6.60

Then what about the compound `COCCN1CCC[C@H](n2nc(C(=O)N3CCOCC3)c3c2-c2cccc(F)c2S(=O)(=O)C3)C1` ? 7.51

###

target: PIK3CB;PIK3CG;PIK3CD;PIK3CA (human); assay: Enzyme Assay
Threshold 1000 nM: IC50 strictly smaller gives yes, otherwise no.

Reference set (6 entries):
>>> category("O=C(c1nn(-c2cccc(CN3CCS(=O)(=O)CC3)c2)c2c1CS(=O)(=O)c1ccccc1-2)N1CCOCC1")
"yes"
>>> category("Nc1ccc2c(c1)S(=O)(=O)Cc1c(C(=O)N3CCOCC3)nn(-c3ccccc3)c1-2")
"no"
>>> category("CC(=O)Nc1nc2c(s1)S(=O)(=O)Cc1c(C(=O)N3CCOCC3)nn(C3CCOCC3)c1-2")
"yes"
>>> category("O=C(c1nn(C2CCOC2)c2c1CS(=O)(=O)c1c(F)cccc1-2)N1CCOCC1 (stereo unspecified)")
"yes"
>>> category("O=C(c1nn(-c2cccc(-c3ncon3)c2)c2c1CS(=O)(=O)c1ccccc1-2)N1CCOCC1")
"no"
>>> category("O=C(c1nn([C@@H]2CCCN(CCF)C2)c2c1CS(=O)(=O)c1ccccc1-2)N1CCOCC1")
"no"

Consider the compound `O=C(c1nn(CC2CCCCC2)c2c1CS(=O)(=O)c1ccccc1-2)N1CCOCC1` . Is its IC50 strictly less than 1000 nM? yes

Now give it for `Cc1cccc2c1S(=O)(=O)Cc1c(C(=O)N3CCOCC3)nn(-c3ccccc3)c1-2` too. no

Now this one: O=C(c1nn(C2CCCN(CCC3CCOCC3)C2)c2c1CS(=O)(=O)c1ncccc1-2)N1CCOCC1 (stereo unspecified) yes

###

biological target: PIK3CB;PIK3CG;PIK3CD;PIK3CA (human); experiment: Enzyme Assay
Observable: IC50
Lab note: write values as number then unit, every time.

See these solved cases before continuing.
>>> value("CC(C)(C)OC(=O)N1CCC(n2nc(C(=O)N3CCOCC3)c3c2-c2ccccc2S(=O)(=O)C3)CC1")
"808 nM"
>>> value("O=C(c1nn(-c2ccccc2)c2c1C(Cc1ccccc1)S(=O)(=O)c1ccccc1-2)N1CCOCC1 (centres undefined)")
"2480 nM"
>>> value("O=C(c1nn(-c2ccc(CN3CCOCC3)cc2)c2c1CS(=O)(=O)c1ccccc1-2)N1CCOCC1")
"170 nM"

// query IC50 value for entry `O=C(Nc1cccnc1)c1cccc(-n2nc(C(=O)N3CCOCC3)c3c2-c2ccccc2S(=O)(=O)C3)c1` 926 nM

###

target: PIK3CB;PIK3CG;PIK3CD;PIK3CA (human) (UniProt P48736); assay: Enzyme Assay
Observable: IC50 (µM)
Please state the figure in µM; there is no need to write the unit.

>>> value("COCCN1CCCC(n2nc(C(=O)N3CCOCC3)c3c2-c2ccccc2S(=O)(=O)C3)CC1 (centres undefined)")
0.478
>>> value("COC1CN(Cc2ccc(-n3nc(C(=O)N4CCOCC4)c4c3-c3ccccc3S(=O)(=O)C4)cc2)C1")
0.165
>>> value("O=C(c1nn(-c2cccc(CN3CCOCC3)c2)c2c1CS(=O)(=O)c1ccccc1-2)N1CCOCC1")
1.3
>>> value("O=C(c1nn(C2CCN(CCN3CC[C@H](F)C3)C2)c2c1CS(=O)(=O)c1ccccc1-2)N1CCOCC1 (some centres undefined)")
0.192
>>> value("COC1CCN(Cc2cccc(-n3nc(C(=O)N4CCOCC4)c4c3-c3ccccc3S(=O)(=O)C4)c2)C1 (centres undefined)")
0.35

Any idea what IC50 was measured for `O=C(c1nn(-c2ccccc2)c2c1NS(=O)(=O)c1ccccc1-2)N1CCOCC1` ? 5.5

Similarly, `O=C(c1nn(-c2cccc(Cn3ccnc3)c2)c2c1CS(=O)(=O)c1ccccc1-2)N1CCOCC1` ? 0.673

How about O=C(c1nn(C2CCCN(CC3CCOC3)C2)c2c1CS(=O)(=O)c1c(F)cccc1-2)N1CCOCC1 (centres undefined) ? 0.021

Follow-up entry: `O=C(c1nn(-c2ccccc2)c2c1CS(=O)(=O)c1c(F)cccc1-2)N1CCOCC1` 0.424
